Data provenance: PubChem BioAssay

- test_method_notes: viability loss in pontine glioma line – cell-based, SU-DIPG-XIII, MIPE4.0, CellTiter-Glo, qHTS, dose response (AID 1347061);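 note: cells exposed to compound for 48 hours before readout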
- condition_context: CellTiter-Glo ATP luminescence
Records with an inconclusive call do not appear. Calls of active or inactive are those of the source. No cut-off is given here; in the data, nearly all actives have AC50 up to about 37 µM.
Respond using exactly one of the listed classes: active, inactive

Study these solved cases before continuing.
compound: Nc1nc(NCCNc2ncc(-n3ccnc3)c(-c3ccc(Cl)cc3Cl)n2)ccc1[N+](=O)[O-]
group: inactive
//
compound: CN(C)C[C@@H]1CCn2cc(c3ccccc32)C2=C(C(=O)NC2=O)c2cn(c3ccccc23)CCO1
group: active
//
compound: O=C(Nc1cccc(Nc2ncc(Br)c(NCCc3cnc[nH]3)n2)c1)N1CCCC1
group: active
//
compound: CC(O)(C#Cc1ccc2c(c1)N(c1nc(N)ncc1Cl)CC2)c1nccs1 (stereo not given)
group: active

INPUT: Field: outcome | Entry: Cc1cnn(C)c1C(=O)Nc1cc(Nc2ccc3c(/C=C/c4ccccn4)n[nH]c3c2)ccc1F
OUTPUT: active

* * *

- test_method_notes: compounds altering viability of human ES cells (AID 493140);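 note: cells exposed to compounds for four days before counting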
- condition_context: human embryonic stem cell survival screen; hits give high values
Readings of survival for the listed compounds
Kindly provide the number alone.

Consider the following illustrative entries.
compound: CCCCC[C@H](O)/C=C/[C@H]1C(=O)C=C[C@@H]1C/C=C\CCCC(=O)O
survival: 86.8

compound: CCCCC[C@H](O)/C=C/[C@H]1C=CC(=O)[C@@H]1C/C=C\CCCC(=O)O
survival: 122

compound: CCCCC[C@H](O)/C=C/[C@H]1C=CC(=O)[C@@H]1CCCCCCC(=O)O
survival: 103

compound: CCCCC[C@H](O)/C=C/[C@H]1C(=O)C[C@H](O)[C@@H]1C/C=C\CCCC(=O)O
survival: 96.1

compound: CCN(CC)CCOC(=O)C1(c2ccc([N+](=O)[O-])cc2)CCCC1
survival: 10.9

compound: CCCCCC#CCC#CCC#CCC#CCCCC(=O)O
survival: 87.3

Value of measured survival for the entry COc1ccc(C(=O)NCc2cccnc2)cc1C(=O)NCc1cccnc1 : 25.1

What the record says about CC(=O)O[C@H]1C[C@@H]2CC[C@@H]3[C@H](CC[C@@]4(C)[C@H]3C[C@H]([N+]3(C)CCCCC3)[C@@H]4OC(C)=O)[C@@]2(C)C[C@@H]1[N+]1(C)CCCCC1 : survival is 6.75

For this compound ( O=C1CC(c2ccc(O)cc2)Oc2cc(O)cc(O)c21 (stereo not given) ), measured survival is 12.5

The value of survival measured for the compound CCCCCCCCCCCCCCCCCCOC[C@H](COP(=O)([O-])OCC[N+](C)(C)C)OC turned out to be 97.7

The compound listed as CO/N=C(\C(=O)N[C@@H]1C(=O)N2C(C(=O)O)=C(COC(C)=O)CS[C@H]12)c1csc(N)n1 (stereo in doubt) shows survival equal to 16.2

Documented survival of C=CC(=O)c1ccc2ccccc2c1 : 46.4

For CC/C=C\C/C=C\C/C=C\C/C=C\C/C=C\C/C=C\CCC(=O)O the compound record lists survival as 81.3

Sure, the documented survival for CC[C@H](CC[C@@H](C)[C@H]1CC[C@H]2[C@@H]3CC=C4C[C@@H](O)CC[C@]4(C)[C@H]3CC[C@]12C)C(C)C is 9.58

Lab book: survival of NC(=O)c1cc[n+](CC2=C(C(=O)O)N3C(=O)[C@@H](NC(=O)[C@@H](c4ccccc4)S(=O)(=O)[O-])[C@H]3SC2)cc1 noted as 7.17

Sample CC/C=C\C/C=C\C/C=C\CCCCCCCCCC(=O)O ; survival observed: 95.1

Recorded result, CCCCC[C@H](O)/C=C/[C@@H]1[C@@H](C/C=C\CCCC(=O)O)[C@H](O)C[C@H]1O , survival: 98.1

The value of survival measured for the compound O=S(=O)(c1cccc2c(I)cccc12)N1CCCNCC1 turned out to be 70.8

The measured survival associated with CC(=O)N[C@@H](CSC/C=C(\C)CC/C=C(\C)CC/C=C(\C)CCC=C(C)C)C(=O)O reads 106

get_value(item= CC(C)=CCC/C(C)=C/CC/C(C)=C/CSCC(=O)O , readout=survival) returns 89.7
